# subject of test: full-length human PLD1 (Homo sapiens (Human))
# Sequence (Q13393 other isoform, or with tags, fused parts or gaps): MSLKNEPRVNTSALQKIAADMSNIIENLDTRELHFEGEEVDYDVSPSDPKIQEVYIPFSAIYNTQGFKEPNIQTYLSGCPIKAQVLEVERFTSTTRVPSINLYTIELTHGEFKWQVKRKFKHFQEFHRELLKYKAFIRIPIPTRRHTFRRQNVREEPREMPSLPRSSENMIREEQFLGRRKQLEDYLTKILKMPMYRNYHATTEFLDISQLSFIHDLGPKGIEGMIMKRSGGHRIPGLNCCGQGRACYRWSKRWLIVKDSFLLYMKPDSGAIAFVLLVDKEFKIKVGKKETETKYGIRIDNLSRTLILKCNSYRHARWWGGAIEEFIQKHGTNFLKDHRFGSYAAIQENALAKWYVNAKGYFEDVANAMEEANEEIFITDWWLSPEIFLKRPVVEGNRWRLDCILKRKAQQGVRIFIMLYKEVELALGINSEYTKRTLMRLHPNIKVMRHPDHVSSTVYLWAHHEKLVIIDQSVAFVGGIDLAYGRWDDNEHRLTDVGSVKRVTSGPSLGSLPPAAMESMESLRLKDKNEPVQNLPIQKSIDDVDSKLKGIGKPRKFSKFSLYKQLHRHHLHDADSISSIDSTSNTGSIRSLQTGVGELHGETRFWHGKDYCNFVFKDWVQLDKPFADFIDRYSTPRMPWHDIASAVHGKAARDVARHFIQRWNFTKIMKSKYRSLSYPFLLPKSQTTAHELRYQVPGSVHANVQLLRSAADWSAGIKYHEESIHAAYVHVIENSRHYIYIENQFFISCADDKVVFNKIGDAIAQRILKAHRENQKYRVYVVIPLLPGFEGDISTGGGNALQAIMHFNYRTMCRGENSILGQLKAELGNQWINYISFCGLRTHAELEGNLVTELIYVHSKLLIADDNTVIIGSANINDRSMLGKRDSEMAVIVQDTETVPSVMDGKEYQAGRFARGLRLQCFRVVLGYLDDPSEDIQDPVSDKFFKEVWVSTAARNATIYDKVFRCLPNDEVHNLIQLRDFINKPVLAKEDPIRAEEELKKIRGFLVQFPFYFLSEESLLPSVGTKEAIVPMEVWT
# assay explanation: Evaluation of human PLD1 enzyme inhibitory activity (Amplex Red / choline oxidase fluorescence)
# Type: biochemical
# test parameters: full-length human PLD1 enzyme; read-out: PLD1 IC50
measurement type: IC50 (nM)
Numbers only; they are read as nM.

{"molecule": "C[C@@H](CN1CCC2(CC1)OC(=O)NN=C2c1ccc(F)cc1Cl)NC(=O)c1cn(C)nn1 [Example 94]", "IC50, nM": 68}
{"molecule": "Cc1cc(C(=O)N[C@@H](C)CN2CC[C@@]3(C[C@H]2C)OC(=O)NN=C3c2ccc(C#N)cc2Cl)[nH]n1 [Example 232]", "IC50, nM": 2580}

Q: Find the measured IC50: item C[C@@H](C[C@H]1CC[C@]2(CC1)OC(=O)NN=C2c1ccc(F)cc1Br)NC(=O)C1(O)CC1 [Example 36] , target or system full-length human PLD1 (Homo sapiens (Human)).
Ans: 221

###

# subject of test: full-length human PLD2 (Homo sapiens (Human), UniProt O14939)
# Sequence (O14939 whole entry): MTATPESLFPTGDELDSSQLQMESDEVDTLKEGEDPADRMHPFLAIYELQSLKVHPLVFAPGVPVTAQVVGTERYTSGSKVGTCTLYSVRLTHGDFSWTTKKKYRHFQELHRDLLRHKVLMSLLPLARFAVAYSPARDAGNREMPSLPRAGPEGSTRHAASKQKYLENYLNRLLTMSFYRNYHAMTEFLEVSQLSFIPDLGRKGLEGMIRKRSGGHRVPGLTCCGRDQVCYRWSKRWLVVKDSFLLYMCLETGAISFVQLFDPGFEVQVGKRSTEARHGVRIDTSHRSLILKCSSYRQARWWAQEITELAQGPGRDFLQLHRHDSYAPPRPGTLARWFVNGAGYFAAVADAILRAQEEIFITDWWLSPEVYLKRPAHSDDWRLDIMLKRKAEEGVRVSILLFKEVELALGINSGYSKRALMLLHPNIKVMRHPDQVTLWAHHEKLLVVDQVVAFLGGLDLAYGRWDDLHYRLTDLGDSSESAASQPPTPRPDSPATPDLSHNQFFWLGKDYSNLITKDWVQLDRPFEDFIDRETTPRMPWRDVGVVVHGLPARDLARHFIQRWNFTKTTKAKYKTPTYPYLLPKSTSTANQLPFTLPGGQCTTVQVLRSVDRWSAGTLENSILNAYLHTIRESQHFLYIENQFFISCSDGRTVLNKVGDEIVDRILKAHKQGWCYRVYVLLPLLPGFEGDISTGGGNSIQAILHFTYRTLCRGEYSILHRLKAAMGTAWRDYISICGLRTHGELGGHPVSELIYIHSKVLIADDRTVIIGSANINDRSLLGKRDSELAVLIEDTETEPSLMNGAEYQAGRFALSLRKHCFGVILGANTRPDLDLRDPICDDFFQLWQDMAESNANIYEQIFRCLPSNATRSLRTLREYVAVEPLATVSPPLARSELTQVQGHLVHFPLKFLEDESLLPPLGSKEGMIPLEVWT
# assay explanation: Evaluation of human PLD2 enzyme inhibitory activity (Amplex Red / choline oxidase fluorescence)
# Type: biochemical
# test parameters: full-length human PLD2 enzyme; read-out: PLD2 IC50
// reported IC50 per item
Numbers only; they are read as µM.

These solved cases illustrate the format of a correct answer.
{"chemical structure": "C[C@@H](C[C@]1(C#N)CC[C@@]2(CC1)OC(=O)NN=C2c1cc(C(F)(F)F)ccc1Br)NC(=O)c1cn(C)cn1", "IC50 (µM)": 0.01}
{"chemical structure": "C[C@@H](C[C@H]1CC[C@]2(CC1)OC(=O)NN=C2c1cc(C#N)ccc1Br)NC(=O)NC1CC1", "IC50 (µM)": 0.171}

Q: Would you kindly share the measured IC50 for CCCC(=O)N[C@@H](C)C[C@H]1CC[C@]2(CC1)OC(=O)NN=C2c1ccc(F)cc1Br ?
Ans: 0.261

Q: Would you kindly share the measured IC50 for C[C@@H](C[C@H]1CC[C@]2(CC1)OC(=O)NN=C2c1nccn1CC1CC1)NC(=O)c1cc(Cl)no1 ?
Ans: 0.221

Q: Would you kindly share the measured IC50 for CNC(=O)C(=O)N[C@@H](C)CN1CCC2(CC1)OC(=O)NN=C2c1cc(C#N)ccc1Cl ?
Ans: 0.011

Q: Would you kindly share the measured IC50 for C[C@@H](C[C@H]1CC[C@]2(CC1)OC(=O)NN=C2c1ccc(F)cc1)NC(=O)c1cc2ccccc2o1 ?
Ans: 0.044

Q: Would you kindly share the measured IC50 for C[C@@H](CN1CCC2(CC1)OC(=O)NN=C2c1cc(C#N)ccc1Br)NC(=O)/C=C/C(F)(F)F ?
Ans: 0.012

###

# subject of test: full-length human PLD2 (Homo sapiens (Human), UniProt O14939)
# assay explanation: Evaluation of human PLD2 enzyme inhibitory activity (Amplex Red / choline oxidase fluorescence)
# Format: biochemical
# test parameters: full-length human PLD2 enzyme; read-out: PLD2 IC50
# Description: A method for measuring human PLD2 enzyme inhibitory activity using an enzyme in which a FLAG-tag is added to the N-terminus of full-length human PLD2 (1-933 amino acids) is shown below. DNA fragment in which a FLAG-tag sequence is added to the 5′-end of full-length human PLD2 was amplified by PCR method, using commercially available human PLD2 gene (Promega KK) as a template. […]
Doc: threshold 100 nM (exclusive). Items with IC50 beneath it return MET; others return NOT MET.

Sample answers from the record:
{"molecule": "COc1cc(C)c(C2=NNC(=O)O[C@]23CC[C@@H](C[C@H](C)NC(=O)NCc2ccccc2F)CC3)cn1 [Example 234]", "category": "NOT MET"}
{"molecule": "C[C@@H](CN1CCC2(CC1)OC(=O)NN=C2c1ccc(F)cc1Cl)NC(=O)c1cn(C)nn1 [Example 94]", "category": "MET"}
{"molecule": "C[C@@H](C[C@H]1CC[C@]2(CC1)OC(=O)NN=C2c1ccc(F)cc1Br)NC(=O)c1cc2cc(F)ccc2[nH]1 [Example 13]", "category": "MET"}

Q: Hi there! Is IC50 for Cc1ccncc1C1=NNC(=O)O[C@]12CC[C@@H](C[C@H](C)NC(=O)c1cc(Cl)no1)CC2 [Example 113] below 100 nM, do you know?
Ans: MET

Q: Hi there! Is IC50 for CNC(=O)C(=O)N[C@@H](C)C[C@]1(C#N)CC[C@@]2(CC1)OC(=O)NN=C2c1ccc(C#N)cc1Br [Example 2-065] below 100 nM, do you know?
Ans: MET

Q: Hi there! Is IC50 for Cc1cc(C(=O)N[C@@H](C)C[C@H]2CC[C@]3(CC2)OC(=O)NN=C3c2ccc(C(=O)NC3CC3)cc2C)[nH]n1 [Example 204] below 100 nM, do you know?
Ans: NOT MET

Q: Hi there! Is IC50 for CNC(=O)C(=O)N[C@@H](C)CN1CCC2(CC1)OC(=O)NN=C2c1cc(C(=O)NC)ccc1Br [Example 2-037] below 100 nM, do you know?
Ans: MET

Q: Hi there! Is IC50 for Cc1cc(N2CCOCC2)ccc1C1=NNC(=O)O[C@]12CC[C@@H](C[C@H](C)NC(=O)C(=O)NC1CC1)CC2 [Example 218] below 100 nM, do you know?
Ans: MET

Q: Hi there! Is IC50 for Cc1cc(C(=O)N[C@@H](C)CN2CCC3(CC2)OC(=O)NN=C3c2ccc(F)cc2Cl)[nH]n1 [Example 93] below 100 nM, do you know?
Ans: MET

Q: Hi there! Is IC50 for Cc1cc(C(=O)N[C@@H](C)C[C@H]2CC[C@]3(CC2)OC(=O)NN=C3c2cnc(N3CC(F)(F)C3)cc2C)[nH]n1 [Example 273] below 100 nM, do you know?
Ans: MET

###

# subject of test: UniProt Q13393
# assay explanation: Evaluation of human PLD1 enzyme inhibitory activity (Amplex Red / choline oxidase fluorescence)
# Type: biochemical
# test parameters: full-length human PLD1 enzyme; read-out: PLD1 IC50
# Procedure: A method for measuring human PLD1 enzyme inhibitory activity using an enzyme in which a FLAG-tag is added to the N-terminus of full-length human PLD1 (1-1036 amino acids) is shown below. DNA fragment in which a FLAG-tag sequence is added to the 5′-end of full-length human PLD1 was amplified by PCR method, using commercially available human PLD1 gene (Promega KK) as a template. […]
// reported pIC50 per item
Please treat pIC50 as minus the base-10 logarithm of the molar concentration.

{"chemical structure": "Cc1cc(C(=O)N[C@@H](C)C[C@H]2CC[C@]3(CC2)OC(=O)NN=C3c2cnc(N3CCC(F)(F)C3)cc2C)[nH]n1", "pIC50": 7.92}
{"chemical structure": "Cc1cc(C(=O)N[C@@H](C)C[C@H]2CC[C@]3(CC2)OC(=O)NN=C3c2cccnc2)[nH]n1", "pIC50": 6.03}
{"chemical structure": "Cc1cc(F)ccc1C1=NNC(=O)O[C@]12CC[C@@H](C[C@H](C)NC(=O)N1CCc3ccccc3C1)CC2", "pIC50": 7.85}
{"chemical structure": "CNC(=O)C(=O)N[C@@H](C)CN1CCC2(CC1)OC(=O)NN=C2c1ccc(Cl)cc1C", "pIC50": 7.54}
{"chemical structure": "Cc1cc(C(=O)N[C@@H](C)C[C@H]2CC[C@]3(CC2)OC(=O)NN=C3c2cnc(Cl)cc2N2CCOCC2)[nH]n1", "pIC50": 6.29}

Q: Would you kindly share the measured pIC50 for Cc1cc(C(=O)N[C@@H](C)CN2CC[C@]3(C[C@@H]2C)OC(=O)NN=C3c2ccc(C#N)cc2Cl)[nH]n1 ?
Ans: 6.77

Q: Would you kindly share the measured pIC50 for C[C@@H](C[C@H]1CC[C@]2(CC1)OC(=O)NN=C2c1cc(C#N)ccc1Br)NC(=O)c1cn(C)cn1 ?
Ans: 7.89

Q: Would you kindly share the measured pIC50 for CNC(=O)C(=O)N[C@@H](C)C[C@H]1CC[C@]2(CC1)OC(=O)NN=C2c1cc(OC)ncc1Br ?
Ans: 7.96

Q: Would you kindly share the measured pIC50 for Cc1cc(C(=O)N[C@@H](C)C[C@H]2CC[C@]3(CC2)OC(=O)NN=C3c2ccc(F)cc2)[nH]n1 ?
Ans: 6.79

Q: Would you kindly share the measured pIC50 for CNC(=O)C(=O)N[C@@H](C)C[C@]1(C#N)CC[C@@]2(CC1)OC(=O)NN=C2c1cc(OC)ncc1Br ?
Ans: 7.82

###

# subject of test: full-length human PLD2 (Homo sapiens (Human), UniProt O14939)
# assay explanation: Evaluation of human PLD2 enzyme inhibitory activity (Amplex Red / choline oxidase fluorescence)
# Format: biochemical
# test parameters: full-length human PLD2 enzyme; read-out: PLD2 IC50
// reported IC50 per item
Numbers only; they are read as µM.

{"chemical structure": "CNC(=O)C(=O)N[C@@H](C)C[C@H]1CC[C@]2(CC1)OC(=O)NN=C2c1ccccc1OC(F)(F)F", "IC50, µM": 0.041}

Q: Would you kindly share the measured IC50 for Cc1cc(C(=O)N[C@@H](C)C[C@H]2CC[C@]3(CC2)OC(=O)NN=C3c2ccc(C#N)cc2C)[nH]n1 ?
Ans: 0.028

Q: Would you kindly share the measured IC50 for Cc1cc(C(=O)N[C@@H](C)C[C@H]2CC[C@]3(CC2)OC(=O)NN=C3c2cccnc2)[nH]n1 ?
Ans: 0.968

Q: Would you kindly share the measured IC50 for CNC(=O)C(=O)N[C@@H](C)CN1CCC2(CC1)OC(=O)NN=C2c1cc(Br)c(F)cc1Cl ?
Ans: 0.012
